Collected melting point values appear next to each entry.
assay.endpoint: melting point

molecule: CCCCCCCNC(=O)NN1CCOC1=O [Compound 18, 1-(2-oxo-oxazolidin-3-yl)-3-heptyl urea]
result: 68 to 69 °C

molecule: O=C(NN1CCOC1=O)c1ccccc1Cl [Compound 4]
result: 166 to 168 °C

molecule: O=C(NC1CCCCC1)NN1CCOC1=O [Compound 22]
result: 203 to 205 °C

molecule: CCCCCCCCNC(=O)NN1CCOC1=O [Compound 19, 1-(2-oxo-oxazolidin-3-yl)-3-octyl urea]
result: 64 to 65 °C

molecule: COc1ccc(CC(=O)NN2CCOC2=O)cc1 [Compound 32]
result: 90 to 92 °C

molecule: Cc1ccc(CCC(=O)NN2CCOC2=O)cc1 [Compound 38]
result: 146 to 148 °C

molecule: Cc1cccc(C(=O)NN2CCOC2=O)c1 [Compound 8]
result: 148 to 150 °C

molecule: O=C(NN1CCOC1=O)c1cccc(F)c1
result: 166 to 169 °C

molecule: CCc1ccc(C(=O)NN2CCOC2=O)cc1 [Compound 11]
result: 170 to 173 °C

molecule: CCCCCCNC(=O)NN1CCOC1=O [Compound 17, 1-(2-oxo-oxazolidin-3-yl)-3-hexyl urea]
result: 74 to 75 °C

molecule: Cc1ccc(NC(=O)NN2CCOC2=O)cc1
result: 205 to 207 °C

molecule: O=C(NN1CCOC1=O)c1ccc(F)cc1 [Compound 1]
result: 189 to 192 °C

molecule: O=C(Nc1ccc(OC(F)(F)F)cc1)NN1CCOC1=O
result: 205 to 206 °C

molecule: O=C(CCc1ccc([N+](=O)[O-])cc1)NN1CCOC1=O [Compound 36]
result: 143 to 145 °C

molecule: O=C(NCc1ccccc1)NN1CCOC1=O [Compound 23, 1-benzyl-3-(2-oxo-oxazolidin-3-yl)urea]
result: 160 to 161 °C

molecule: O=C(NN1CCOC1=O)c1ccc([N+](=O)[O-])cc1 [Compound 7]
result: 206 to 208 °C

molecule: O=C(CCc1ccc(Cl)cc1)NN1CCOC1=O [Compound 39]
result: 134 to 136 °C

molecule: O=C(NN1CCOC1=O)c1ccccc1F [Compound 6]
result: 124 to 127 °C

molecule: O=C(NN1CCOC1=O)c1ccc(CCl)cc1 [Compound 3]
result: 206 to 208 °C

molecule: O=C(NCCc1ccccc1)NN1CCOC1=O [Compound 24]
result: 123 to 125 °C

molecule: O=C(Cc1ccc(Cl)cc1)NN1CCOC1=O [Compound 34]
result: 124 to 127 °C

molecule: CCCCNC(=O)NN1CCOC1=O [Compound 15, 1-(2-oxo-oxazolidin-3-yl)-3-butyl urea]
result: 98 to 100 °C

molecule: O=C1OCCN1NC(=S)Nc1ccccc1 [Compound 27, 1-(2-oxo-oxazolidin-3-yl)phenylthiourea]
result: 191 to 193 °C

molecule: O=C(NN1CCOC1=O)c1ccccc1C(F)(F)F [Compound 10]
result: 139 to 141 °C

molecule: O=C(NN1CCOC1=O)c1cccc(Cl)c1 [Compound 5]
result: 151 to 152 °C

molecule: Cc1ccc(CC(=O)NN2CCOC2=O)cc1 [Compound 35]
result: 108 to 111 °C

molecule: O=C(NN1CCOC1=O)c1ccc(Br)cc1 [Compound 12]
result: 202 to 204 °C

molecule: O=C(Cc1ccc([N+](=O)[O-])cc1)NN1CCOC1=O [Compound 33]
result: 180 to 183 °C

molecule: O=C(Cc1ccc(F)cc1)NN1CCOC1=O [Compound 31]
result: 131 to 134 °C

molecule: Cc1cccc(NC(=O)NN2CCOC2=O)c1
result: 191 to 192 °C

molecule: CCCCCNC(=O)NN1CCOC1=O [Compound 16, 1-(2-oxo-oxazolidin-3-yl)-3-pentyl urea]
result: 83 to 86 °C

molecule: O=C(Nc1cccc(Br)c1)NN1CCOC1=O
result: 197 to 199 °C

molecule: O=C(Nc1ccc(Br)cc1)NN1CCOC1=O [Compound 20]
result: 212 to 215 °C

molecule: O=C(CCCc1ccccc1)NN1CCOC1=O [Compound 40]
result: 104 to 107 °C

molecule: CC(C)(C)c1ccc(C(=O)NN2CCOC2=O)cc1 [Compound 2]
result: 187 to 189 °C
